- TARGET DESC: E. coli, PDF enzyme (Escherichia coli, UniProt P0A6K3)
- Sequence (P0A6K3 whole entry): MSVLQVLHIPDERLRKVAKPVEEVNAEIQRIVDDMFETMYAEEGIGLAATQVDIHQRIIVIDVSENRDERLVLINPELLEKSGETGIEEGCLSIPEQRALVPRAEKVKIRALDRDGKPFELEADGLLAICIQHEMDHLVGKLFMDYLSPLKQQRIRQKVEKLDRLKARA
MEASURED METRIC: IC50 (µM)

- COMPOUND: "Cc1ccc(S(=O)(=O)Cc2cc(C(=O)NO)no2)cc1 [Example 33]"
  MEASURED: 11.5

====

- COMPOUND: "O=C(NO)c1cc(CSCc2cccc(C(F)(F)F)c2)on1 [Example 17]"
  melting point: "109 to 110 °C"
- COMPOUND: "CC(C)c1ccccc1SCc1cc(C(=O)NO)no1 [Example 8]"
  melting point: "121 to 123 °C (dec.)"
- COMPOUND: "O=C(NO)c1cc(CSc2ccccc2C(F)(F)F)on1 [Example 14]"
  melting point: "140 to 144 °C (dec.)"
- COMPOUND: "O=C(NO)c1cc(CSc2ccc(C(F)(F)F)cc2)on1 [Example 13]"
  melting point: "129 °C"
- COMPOUND: "Cc1ccc(SCc2cc(C(=O)NO)no2)cc1 [Example 1]"
  melting point: "94 to 96 °C (dec.)"
- COMPOUND: "O=C(NO)c1cc(CSc2ccccc2Cl)on1 [Example 4]"
  melting point: "141 to 143 °C (dec.)"
- COMPOUND: "O=C(NO)c1cc(CSc2cccc(Br)c2)on1 [Example 7]"
  melting point: "104 to 105 °C"
- COMPOUND: "O=C(NO)c1cc(CSCc2cc3ccccc3s2)on1 [Example 16]"
  melting point: "143 to 145 °C (dec.)"
- COMPOUND: "O=C(NO)c1cc(CSc2ccc(Cl)c(Cl)c2)on1 [Example 5]"
  melting point: "99 to 102 °C (dec.)"
- COMPOUND: "O=C(NO)c1cc(CSc2ccccc2OC(F)(F)F)on1"
  melting point: "108 to 109 °C (dec.)"
- COMPOUND: "COc1cccc(SCc2cc(C(=O)NO)no2)c1 [Example 11]"
  melting point: "116 °C"
- COMPOUND: "Cc1cc(C)c(SCc2cc(C(=O)NO)no2)c(C)c1 [Example 9]"
  melting point: "133 to 135 °C (dec.)"
- COMPOUND: "O=C(NO)c1cc(CSc2ccccc2Br)on1 [Example 6]"
  melting point: "135 to 136 °C (dec.)"
- COMPOUND: "O=C(NO)c1cc(CSc2ccc(F)cc2)on1 [Example 12]"
  melting point: "98 to 99 °C (dec.)"
- COMPOUND: "CC(C)c1ccccc1S(=O)(=O)Cc1cc(C(=O)NO)no1 [Example 36]"
  melting point: "170 °C (dec.)"
- COMPOUND: "O=C(NO)c1cc(CSc2nccc(-c3cccs3)n2)on1"
  melting point: "165 to 168 °C (dec.)"
- COMPOUND: "CC(c1cc(C(=O)NO)no1)S(=O)(=O)c1ccc(Cl)cc1 (stereo not drawn)"
  melting point: "162 °C (dec.)"
- COMPOUND: "O=C(NO)c1cc(CSc2cccc(Cl)c2)on1 [Example 3]"
  melting point: "105 to 107 °C (dec.)"
